Please respond with reported sfGFP reporter fluorescence for every item in the list.
B1: library; numbered along this chain (parent)
chain: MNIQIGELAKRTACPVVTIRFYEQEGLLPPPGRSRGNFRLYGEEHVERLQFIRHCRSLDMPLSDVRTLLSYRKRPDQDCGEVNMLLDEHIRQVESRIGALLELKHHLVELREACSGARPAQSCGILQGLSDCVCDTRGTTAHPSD

# Variants of: B1
# method description: sfGFP reporter fluorescence (15 h) (µM FITC); higher = stronger transcriptional activation
# assay context: library round: Round 0; ligand: 1 µM Pb
Give bare numbers.

Below are worked cases with known answers.
{"variant descriptor": "R20E", "sfGFP reporter fluorescence": 0.0616}
{"variant descriptor": "E7L", "sfGFP reporter fluorescence": 0.0837}

Dear colleague, could you please provide sfGFP reporter fluorescence for the variants listed below?
1. R20P
2. L28N
3. M60L P61N K104V G128I
4. C79T
5. M60L
6. F21Y
7. L28K
8. M60D

0.0597
0.0592
0.448
0.0592
0.295
0.0755
0.0625
0.0619
